experimentalDetails: in vitro
conditionSet: human
quantity: CC50 (µM)
Express it in µM; write the number only.

Item CC[C@H]1C[C@H](C)[C@@]2(NC1=O)O[C@@H](C[C@H](O)[C@@H](C)CC/C=C/C=C(\C)[C@@H]1C/C=C/C=C/[C@H](O)[C@H](C)[C@@H](O)[C@@H](CCC(C)=O)C(=O)N[C@@H](C(C)C)C(=O)N[C@@H](Cc3cc(O)cc(F)c3)C(=O)N3CCCC(N3)C(=O)O1)[C@H](C)[C@H](O)[C@@H]2C (stereo partly drawn) [Compound 14, 63-Fluoro Sanglifehrin a] has what recorded CC50?
12.8

Item CC[C@H]1C[C@H](C)[C@@]2(NC1=O)O[C@@H](C[C@H](O)[C@@H](C)CC/C=C/C=C(\C)[C@@H]1C/C=C/C=C/[C@H](O)[C@H](C)[C@@H](O)[C@@H](CCC(C)=O)C(=O)N[C@@H](C(C)C)C(=O)N[C@@H](Cc3ccc(C)c(O)c3)C(=O)N3CCCC(N3)C(=O)O1)[C@H](C)[C@H](O)[C@@H]2C (stereo partly drawn) [Compound 17, 62-Methyl Sanglifehrin A] has what recorded CC50?
11.6

Item CC(=O)CC[C@H]1C(=O)N[C@@H](C(C)C)C(=O)N[C@@H](Cc2cccc(O)c2)C(=O)N2CCC[C@H](N2)C(=O)O[C@H](/C(C)=C/CO)C/C=C/C=C/[C@H](O)[C@H](C)[C@H]1O [Hydroxymacrocycle, 6, reference compound] has what recorded CC50?
83.6
